Tested on: C. parapsilosis ATCC 22019
Assay: Anti-Fungal (Candida) Activity Assay, broth microtiter MIC
Type: cell-based
Details: Lodderomyces parapsilosis, ATCC22019, 48 h, Table 3a; 3 replicates; MIC read at 48 h
measurement.kind: MIC

// known answers, use as guide
- smiles.repr: "CCOC(=O)c1sc2c(c1C)c(=O)n(C(C)(C)C(=O)N1CCCC1)c(=O)n2C[C@H](OCCOC)c1cc(F)ccc1OC"
  target.or.test.system: "C. parapsilosis ATCC 22019"
  MIC: "> 4.1 µg/mL"
- smiles.repr: "CCOC(=O)c1sc2c(c1C)c(=O)n(C(C)(C)C(=O)N1CCCC1)c(=O)n2C[C@H](OCCC#N)c1cc(F)ccc1OC"
  target.or.test.system: "C. parapsilosis ATCC 22019"
  MIC: "> 4.1 µg/mL"
- smiles.repr: "CCOC(=O)c1sc2c(c1C)c(=O)n(C(C)(C)C(=O)N1CCCC1)c(=O)n2C[C@H](OC1CCOCC1)c1ccccc1OC"
  target.or.test.system: "C. parapsilosis ATCC 22019"
  MIC: "0.25 to 1 µg/mL"

For every item below, please supply its MIC.
1. CCOC(=O)c1sc2c(c1C)c(=O)n(C(C)(C)C(=O)N1CCCC1)c(=O)n2C[C@H](OCCO)c1cc(F)ccc1OC
2. CCNC(=O)C(C)(C)n1c(=O)c2c(C)c(C(=O)OCC)sc2n(C[C@H](OC2CCOCC2)c2ccccc2OC)c1=O

> 4.1 µg/mL
1.1 to 2 µg/mL

For every item below, please supply its MIC.
1. CCOC(=O)c1sc2c(c1C)c(=O)n(C(C)(C)C(=O)NC(C)C)c(=O)n2C[C@H](OCCOC)c1cc(F)ccc1OC
2. CCOC(=O)c1sc2c(c1C)c(=O)n(C(C)(C)C(=O)N1CCCCC1)c(=O)n2C[C@H](OC1CCOCC1)c1ccccc1OC

2.1 to 4 µg/mL
0.25 to 1 µg/mL

Endpoint output: MIC of `CCOC(=O)c1sc2c(c1C)c(=O)n(C(C)(C)C(=O)NC(C)C)c(=O)n2C[C@H](OCCO)c1cc(F)ccc1OC` . Value?
2.1 to 4 µg/mL
